- target_or_system: Neuropeptide Y receptor type 2 (Homo sapiens, UniProt P49146)
- Sequence (P49146 whole entry): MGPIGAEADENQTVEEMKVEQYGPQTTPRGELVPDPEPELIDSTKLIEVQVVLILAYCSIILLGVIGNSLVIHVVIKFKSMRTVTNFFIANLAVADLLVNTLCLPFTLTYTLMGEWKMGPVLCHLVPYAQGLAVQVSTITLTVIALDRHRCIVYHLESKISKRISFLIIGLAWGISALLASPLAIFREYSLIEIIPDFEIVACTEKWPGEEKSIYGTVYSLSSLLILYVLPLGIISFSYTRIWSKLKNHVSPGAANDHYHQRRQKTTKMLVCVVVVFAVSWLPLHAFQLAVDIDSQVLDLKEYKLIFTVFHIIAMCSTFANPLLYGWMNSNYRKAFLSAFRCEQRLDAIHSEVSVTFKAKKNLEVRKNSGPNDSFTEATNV
- test_summary: Displacement of [3H]propionyl-pNPY from human Y2R expressed in CHO cells
- Type: cell-based
- experimental_conditions: read-out: pKi (converted)

{"structure_as_smiles": "CC(C)C[C@H](NC(=O)[C@@H]1CCCN/C(N)=N/C(=O)NCCCCNC(=O)C[C@@H](N)C(=O)N[C@@H](CCCNC(=N)N)C(=O)N[C@@H](Cc2ccc(O)cc2)C(=O)N1)C(=O)N[C@@H](CCCNC(=N)N)C(=O)N[C@@H](Cc1ccc(O)cc1)C(N)=O", "Ki": "> 10 µM"}
{"structure_as_smiles": "CCC(=O)N[C@H]1CC(=O)N[C@@H](CCCNC(=N)N)C(=O)N[C@@H](Cc2ccc(O)cc2)C(=O)N[C@H](C(=O)N[C@@H](CC(C)C)C(=O)N[C@@H](CCCNC(=N)N)C(=O)N[C@@H](Cc2ccc(O)cc2)C(N)=O)CCCN/C(N)=N/C(=O)NCCCCNC1=O", "Ki": "> 10 µM"}
{"structure_as_smiles": "CCC(=O)N[C@@H]1CC(=O)NCCCCNC(=O)/N=C(\\N)NCCC[C@@H](C(=O)N[C@@H](CC(C)C)C(=O)N[C@@H](CCCNC(=N)N)C(=O)N[C@@H](Cc2ccc(O)cc2)C(N)=O)NC(=O)[C@H](Cc2ccc(O)cc2)NC(=O)[C@H](CCCNC(=N)N)NC1=O", "Ki": "> 3.16 µM"}
{"structure_as_smiles": "CC(C)C[C@H](NC(=O)[C@@H]1CCCN/C(N)=N/C(=O)NCCCCNC(=O)[C@@H](N)CC(=O)N[C@@H](CCCNC(=N)N)C(=O)N[C@@H](Cc2ccc(O)cc2)C(=O)N1)C(=O)N[C@@H](CCCNC(=N)N)C(=O)N[C@@H](Cc1ccc(O)cc1)C(N)=O", "Ki": "> 10 µM"}

----------
The following compounds are listed with their measured Emax values.
- target_or_system: Neuropeptide Y receptor type 4 (Homo sapiens)
- Sequence (P50391 whole entry): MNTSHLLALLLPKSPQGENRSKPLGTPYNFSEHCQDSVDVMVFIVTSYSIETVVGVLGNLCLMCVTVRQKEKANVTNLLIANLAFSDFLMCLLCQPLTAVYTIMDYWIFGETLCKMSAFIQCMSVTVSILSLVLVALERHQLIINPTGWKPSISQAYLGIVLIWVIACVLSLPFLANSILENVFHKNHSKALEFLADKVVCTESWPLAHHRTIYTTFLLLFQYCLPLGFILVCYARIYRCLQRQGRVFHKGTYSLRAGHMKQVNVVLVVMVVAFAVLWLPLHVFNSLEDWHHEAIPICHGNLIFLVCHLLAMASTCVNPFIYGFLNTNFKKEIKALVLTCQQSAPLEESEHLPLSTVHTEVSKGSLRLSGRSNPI
- test_summary: Agonist activity at human Y4R expressed in CHO cells co-expressing Gqi5-mtAEQ by calcium2+ aequorin assay relative to control
- Assay type: functional, cell-based
- experimental_conditions: filed as agonist
Starred links: 1 amine or outer side, 2 acyl side, 3 side chain; linkers in the order of their positions; H or OH if unused. Positions of bridges follow the written chain, without caps; N, C: chain ends. Non-standard residues stand in square brackets, D forms with d. Residues, ends and D or L forms follow the SMILES beside them. *: point of attachment. Arg(Nω-CO) = N/C(=N\C(=O)[*:3])NCCC[C@H](N[*:1])C(=O)[*:2]; Ethylenediamine = C(CN[*:2])N[*:1]; Propionyl = CCC(=O)*

{"compound": "CCC(=O)N[C@H]1CC(=O)N[C@@H](CCCNC(=N)N)C(=O)N[C@@H](Cc2ccc(O)cc2)C(=O)N[C@H](C(=O)N[C@@H](CC(C)C)C(=O)N[C@@H](CCCNC(=N)N)C(=O)N[C@@H](Cc2ccc(O)cc2)C(N)=O)CCCN/C(N)=N/C(=O)NCCCCNC1=O", "Emax, %": 80}
{"compound": "CCC(=O)N[C@@H]1CC(=O)N[C@@H](CCCNC(=N)N)C(=O)N[C@@H](Cc2ccc(O)cc2)C(=O)N[C@H](C(=O)N[C@@H](CC(C)C)C(=O)N[C@@H](CCCNC(=N)N)C(=O)N[C@@H](Cc2ccc(O)cc2)C(N)=O)CCCN/C(N)=N/C(=O)NCCCCNC1=O", "Emax, %": 74}
{"compound": "CC(C)C[C@H](NC(=O)[C@@H]1CCCN/C(N)=N/C(=O)NCCCCNC(=O)C[C@H](N)C(=O)N[C@@H](CCCNC(=N)N)C(=O)N[C@@H](Cc2ccc(O)cc2)C(=O)N1)C(=O)N[C@@H](CCCNC(=N)N)C(=O)N[C@@H](Cc1ccc(O)cc1)C(N)=O", "Emax, %": 70}
{"compound": "CCC(=O)N[C@H]1CC(=O)NCCCCNC(=O)/N=C(\\N)NCCC[C@@H](C(=O)N[C@@H](CC(C)C)C(=O)N[C@@H](CCCNC(=N)N)C(=O)N[C@@H](Cc2ccc(O)cc2)C(N)=O)NC(=O)[C@H](Cc2ccc(O)cc2)NC(=O)[C@H](CCCNC(=N)N)NC1=O", "Emax, %": 64}
{"compound": "CC(C)C[C@H](NC(=O)[C@@H]1CCCNC(=N)NC(=O)NCCCCNC(=O)CCC(=O)N[C@@H](CCCNC(=N)N)C(=O)N[C@@H](Cc2ccc(O)cc2)C(=O)N1)C(=O)N[C@@H](CCCNC(=N)N)C(=O)N[C@@H](Cc1ccc(O)cc1)C(N)=O", "Emax, %": 100}
{"compound": "CCC(=O)N[C@H]1CCC(=O)NCCNC(=O)/N=C(\\N)NCCC[C@@H](C(=O)N[C@@H](CC(C)C)C(=O)N[C@@H](CCCNC(=N)N)C(=O)N[C@@H](Cc2ccc(O)cc2)C(N)=O)NC(=O)[C@H](Cc2ccc(O)cc2)NC(=O)[C@H](CCCNC(=N)N)NC1=O (Propionyl-ERY[Arg(Nω-CO)]LRY-NH2; linker 1-4 via Ethylenediamine)", "Emax, %": 66}

----------
- target_or_system: Neuropeptide Y receptor type 4 (Homo sapiens)
- test_summary: Agonist activity at human Y4R expressed in CHO cells co-expressing Gqi5-mtAEQ by calcium2+ aequorin assay
- Type: functional, cell-based
- experimental_conditions: read-out: EC50
pEC50: −log10 of the molar value. Starred links: 1 amine or outer side, 2 acyl side, 3 side chain; linkers in the order of their positions; H or OH if unused. Positions of bridges follow the written chain, without caps; N, C: chain ends. Non-standard residues stand in square brackets, D forms with d. Residues, ends and D or L forms follow the SMILES beside them. *: point of attachment. Arg(Nω-CO) = N/C(=N\C(=O)[*:3])NCCC[C@H](N[*:1])C(=O)[*:2]; Ethylenediamine = C(CN[*:2])N[*:1]; Propionyl = CCC(=O)*
recorded_metric: pEC50

{"compound": "CC(C)C[C@H](NC(=O)[C@@H]1CCCN/C(N)=N/C(=O)NCCCCNC(=O)C[C@H](N)C(=O)N[C@@H](CCCNC(=N)N)C(=O)N[C@@H](Cc2ccc(O)cc2)C(=O)N1)C(=O)N[C@@H](CCCNC(=N)N)C(=O)N[C@@H](Cc1ccc(O)cc1)C(N)=O", "recorded_metric": "pEC50", "value": 7.72}
{"compound": "CCC(=O)N[C@H]1CCC(=O)NCCNC(=O)/N=C(\\N)NCCC[C@@H](C(=O)N[C@@H](CC(C)C)C(=O)N[C@@H](CCCNC(=N)N)C(=O)N[C@@H](Cc2ccc(O)cc2)C(N)=O)NC(=O)[C@H](Cc2ccc(O)cc2)NC(=O)[C@H](CCCNC(=N)N)NC1=O (Propionyl-ERY[Arg(Nω-CO)]LRY-NH2; linker 1-4 via Ethylenediamine)", "recorded_metric": "pEC50", "value": 7.15}
{"compound": "CC(C)C[C@H](NC(=O)[C@@H]1CCCN/C(N)=N/C(=O)NCCCCNC(=O)[C@H](NC(=O)CCCN)CC(=O)N[C@@H](CCCNC(=N)N)C(=O)N[C@@H](Cc2ccc(O)cc2)C(=O)N1)C(=O)N[C@@H](CCCNC(=N)N)C(=O)N[C@@H](Cc1ccc(O)cc1)C(N)=O", "recorded_metric": "pEC50", "value": 7.74}
{"compound": "CCC(=O)N[C@@H]1CC(=O)N[C@@H](CCCNC(=N)N)C(=O)N[C@@H](Cc2ccc(O)cc2)C(=O)N[C@H](C(=O)N[C@@H](CC(C)C)C(=O)N[C@@H](CCCNC(=N)N)C(=O)N[C@@H](Cc2ccc(O)cc2)C(N)=O)CCCN/C(N)=N/C(=O)NCCCCNC1=O", "recorded_metric": "pEC50", "value": 8.05}

----------
- target_or_system: Neuropeptide Y receptor type 4 (Homo sapiens)
- test_summary: Agonist activity at human Y4R expressed in HEK293T cells by miniGsi assay
- Type: functional, cell-based
Starred links: 1 amine or outer side, 2 acyl side, 3 side chain; linkers in the order of their positions; H or OH if unused. Positions of bridges follow the written chain, without caps; N, C: chain ends. Non-standard residues stand in square brackets, D forms with d. Residues, ends and D or L forms follow the SMILES beside them. *: point of attachment. Arg(Nω-CO) = N/C(=N\C(=O)[*:3])NCCC[C@H](N[*:1])C(=O)[*:2]; Ethylenediamine = C(CN[*:2])N[*:1]; Propionyl = CCC(=O)*
recorded_metric: EC50 (nM)

{"compound": "CC(C)C[C@H](NC(=O)[C@@H]1CCCN/C(N)=N/C(=O)NCCNC(=O)CC[C@H](N)C(=O)N[C@@H](CCCNC(=N)N)C(=O)N[C@@H](Cc2ccc(O)cc2)C(=O)N1)C(=O)N[C@@H](CCCNC(=N)N)C(=O)N[C@@H](Cc1ccc(O)cc1)C(N)=O (H-ERY[Arg(Nω-CO)]LRY-NH2; linker 1-4 via Ethylenediamine)", "measurement_unit": "nM", "value": 10}
{"compound": "CCC(=O)N[C@H]1CCC(=O)NCCNC(=O)/N=C(\\N)NCCC[C@@H](C(=O)N[C@@H](CC(C)C)C(=O)N[C@@H](CCCNC(=N)N)C(=O)N[C@@H](Cc2ccc(O)cc2)C(N)=O)NC(=O)[C@H](Cc2ccc(O)cc2)NC(=O)[C@H](CCCNC(=N)N)NC1=O (Propionyl-ERY[Arg(Nω-CO)]LRY-NH2; linker 1-4 via Ethylenediamine)", "measurement_unit": "nM", "value": 19}
{"compound": "CC(C)C[C@H](NC(=O)[C@@H]1CCCN/C(N)=N/C(=O)NCCCCNC(=O)[C@@H](N)CC(=O)N[C@@H](CCCNC(=N)N)C(=O)N[C@@H](Cc2ccc(O)cc2)C(=O)N1)C(=O)N[C@@H](CCCNC(=N)N)C(=O)N[C@@H](Cc1ccc(O)cc1)C(N)=O", "measurement_unit": "nM", "value": 1.1}
{"compound": "CCC(=O)NCCCC(=O)N[C@@H]1CC(=O)N[C@@H](CCCNC(=N)N)C(=O)N[C@@H](Cc2ccc(O)cc2)C(=O)N[C@H](C(=O)N[C@@H](CC(C)C)C(=O)N[C@@H](CCCNC(=N)N)C(=O)N[C@@H](Cc2ccc(O)cc2)C(N)=O)CCCN/C(N)=N/C(=O)NCCCCNC1=O.O=C(O)C(F)(F)F.O=C(O)C(F)(F)F.O=C(O)C(F)(F)F", "measurement_unit": "nM", "value": 5.1}
